Target: CTLA4 (human)
Sequence (chain, as listed by the source): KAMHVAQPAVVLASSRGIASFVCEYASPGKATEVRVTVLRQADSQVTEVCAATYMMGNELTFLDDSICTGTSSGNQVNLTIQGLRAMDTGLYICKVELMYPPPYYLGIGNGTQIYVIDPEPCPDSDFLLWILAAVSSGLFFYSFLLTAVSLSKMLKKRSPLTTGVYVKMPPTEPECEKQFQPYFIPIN
Assay method text: flow cytometry, CHO cells stably expressing CTLA4
Value kind: Fold change to WT CD80 (fold)

Look over these answered cases.
Binder | Value kind | Result value
CD80 variant H18Y/E35D/M47L IgV-Fc (Fc fusion) VIHVTKEVKEVATLSCGYNVSVEELAQTRIYWQKDKKMVLTMMSGDLNIWPEYKNRTIFDITNNLSIVILALRPSDEGTYECVVLKYEKDAFKREHLAEVT | Fold change to WT CD80 | 1.59
CD80 variant A26E/Q33R/E35D/M47L/L85Q/K86E IgV-Fc (Fc fusion) VIHVTKEVKEVATLSCGHNVSVEELEQTRIYWRKDKKMVLTMMSGDLNIWPEYKNRTIFDITNNLSIVILALRPSDEGTYECVVQEYEKDAFKREHLAEVT | Fold change to WT CD80 | 0.01
CD80 variant Q33K/E35D/D46V/L85Q IgV-Fc (Fc fusion) VIHVTKEVKEVATLSCGHNVSVEELAQTRIYWKKDKKMVLTMMSGVMNIWPEYKNRTIFDITNNLSIVILALRPSDEGTYECVVQKYEKDAFKREHLAEVT | Fold change to WT CD80 | 0.05
CD80 variant Q33L/E35D/M47V/L85Q IgV-Fc (Fc fusion) VIHVTKEVKEVATLSCGHNVSVEELAQTRIYWLKDKKMVLTMMSGDVNIWPEYKNRTIFDITNNLSIVILALRPSDEGTYECVVQKYEKDAFKREHLAEVT | Fold change to WT CD80 | 0.42

A: CD80 variant E35D/M47V/A71G/L85M/L97Q IgV-Fc (Fc fusion) VIHVTKEVKEVATLSCGHNVSVEELAQTRIYWQKDKKMVLTMMSGDVNIWPEYKNRTIFDITNNLSIVILGLRPSDEGTYECVVMKYEKDAFKREHQAEVT
B: CD80 variant Q33L/E35D/M47I/T62N/L85Q IgV-Fc (Fc fusion) VIHVTKEVKEVATLSCGHNVSVEELAQTRIYWLKDKKMVLTMMSGDINIWPEYKNRTIFDINNNLSIVILALRPSDEGTYECVVQKYEKDAFKREHLAEVT
IN: Form: Entry with minimum Fold change to WT CD80 (choose one): A / B I would appreciate it if you answered with the label of your choice.
OUT: B
(B: 0.01 fold, A: 1.34 fold)

1: CD80 variant A26E/Q33L/E35D/M47L/L85Q IgV-Fc (Fc fusion) VIHVTKEVKEVATLSCGHNVSVEELEQTRIYWLKDKKMVLTMMSGDLNIWPEYKNRTIFDITNNLSIVILALRPSDEGTYECVVQKYEKDAFKREHLAEVT
2: CD80 variant H18Y/Q33L/E35D/M47I IgV-Fc (Fc fusion) VIHVTKEVKEVATLSCGYNVSVEELAQTRIYWLKDKKMVLTMMSGDINIWPEYKNRTIFDITNNLSIVILALRPSDEGTYECVVLKYEKDAFKREHLAEVT
3: CD80 variant E35D/M47L/L85Q IgV-Fc (Fc fusion) VIHVTKEVKEVATLSCGHNVSVEELAQTRIYWQKDKKMVLTMMSGDLNIWPEYKNRTIFDITNNLSIVILALRPSDEGTYECVVQKYEKDAFKREHLAEVT
IN: Please rank these binders by Fold change to WT CD80 in descending order. # format: label list in the order the request specifies
OUT: 3, 2, 1
